# PROTOCOL_DESCRIPTION: Saturation solubility in selected solvents/vehicles
# Format: physicochemical
# CONDITIONS_USED: oil or lipid, thermodynamic from solid, n = 1; RO6871085 as hydrochloride salt, HU308 crystalline material; > = saturation not achieved; read-out: Solubility in MCT (Miglyol 812)
MEASUREMENT_TYPE: solubility

> print(dat)
                                   compound  recorded.result
1  CCCCCCC(C)(C)c1cc(OC)c([C@H]2C=C(CO)[C@H]3C[C@@H]2C3(C)C)c(OC)c1 [HU308, reference compound]     > 10.3 mg/mL
2  CCCCCCC(C)(C)c1cc(OC)c(C2=C[C@H]3CC[C@]2(CO)C3(C)C)c(OC)c1 [HU910, reference compound]     > 87.8 mg/mL
3  CNC(=O)[C@@H](NC(=O)c1cc(OCC2(C)COC2)c(C2CC2)cn1)C(C)(C)C       > 19 mg/mL
